The reported numbers originate from the supplement of paper PMC10567573.

B1: CPXM2 (parent)
chain: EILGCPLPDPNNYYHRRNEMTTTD

Variants of: B1
assay.overview: protein stability index of a GFP-peptide fusion (GPS, HEK-293T) (PSI 1-6); higher = more stable;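 also: lentivirally expressed fusions sorted by FACS into six bins by GFP to DsRed ratio, PSI derived from sequencing read proportions per bin multiplied by bin number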
conditions.used: c terminus: a fixed tail appended
property.measured: protein stability index
One number for each entry.

Example variants with recorded protein stability index:
In [3]: df
Out[3]:
   mutations  numeric_value
0       T22R              3
1       R16C           3.15
2       M20S           3.98
3        G4D           3.96
4       Y13A           4.21
5        I2F           3.75
6       Y14N           4.17
7       Y14E           4.59

Batch of 8 variants: report protein stability index for each.
1. N12P
2. R16Y
3. E1T
4. N18W
5. P8C
6. P10E
7. E1H
8. R16H

Result ::
1. 3.45
2. 2.83
3. 3.69
4. 2.16
5. 2.4
6. 4.08
7. 3.16
8. 3.56

Could you tell me protein stability index for each of these variants? They are listed below.
1. R16G
2. Y14S

Result ::
[4, 4.38]

Fill in protein stability index for each of the 7 variants listed.
1. N11R
2. T23M
3. T22Y
4. T22V
5. D24M
6. E1A
7. E1P

Result ::
1: 3.04; 2: 2.78; 3: 3.31; 4: 3.38; 5: 2.28; 6: 3.2; 7: 4.63

Hello, I would appreciate it if you could give protein stability index for each entry below.
1. Y14A
2. P6M

Result ::
1: 4.18; 2: 2.07

Each variant below has a recorded value; state its protein stability index.
1. T22S
2. D9I
3. E19C
4. T21Q

Result ::
1: 3.48; 2: 2.59; 3: 2.8; 4: 3.6

Please go through the list and note protein stability index for each variant.
1. T23I
2. P8N
3. N11H
4. E19F
5. N12D
6. P6C

Result ::
3.55
3.31
3.19
2.62
4.07
2.92

Hi! Can you tell me protein stability index for each of these variants?
1. P8Y
2. T22K
3. E1K
4. I2K
5. E1L

Result ::
1: 2.71; 2: 3.54; 3: 3.18; 4: 4.54; 5: 2.63

Go through the list and state protein stability index for each entry.
1. D9V
2. H15T
3. I2Y
4. T23A
5. N12M

Result ::
1: 3.04; 2: 3.76; 3: 3.77; 4: 3.65; 5: 3.41
